Values compiled from patent US20040266732A1.

- System: SNB-19
- assayOverview: NCI 60 cell-line test
- Type: cell-based, human
- recordedConditions: SNB-19 (CNS Cancer); read-out: LC50 (the source's name)
measure: CC50

// Input: CC1(C)C2CC[C@@]1(CS(=O)(=O)N(C1CCCCC1)C1CCCCC1)C(O)C2 (stereo partly shown) . Output its CC50 only.
> 100 µM

---

- Test system: A498
- assayOverview: NCI 60 cell-line test
- Format: cell-based, human
- recordedConditions: A498 (Renal Cancer); read-out: LC50 (the source's name)
measure: CC50

// Input: CC1(C)C2CC[C@@]1(CS(=O)(=O)N(C1CCCCC1)C1CCCCC1)C(O)C2 (stereo partly shown) . Output its CC50 only.
> 100 µM
